The values you see were collected from PubChem BioAssay.

test.method.notes: FRG1 promoter luciferase signal modulators, primary screen, FRG1 inhibition for FSHD, cell-based, C2C12 myotubes, firefly/Renilla luciferase, luminescence (AID 1084)
condition.info: higher = more signal, called active from +8 up or from −8 down
attribute.measured: z-score
Answer as a number with no unit attached.

Example results:
compound=CCOC(=O)NN=C1C[C@@H](O)[C@@H](O)[C@@H]2[C@@H]3C(=O)N(Cc4ccccc4)C(=O)[C@@H]3CC[C@@H]12 assay_value=-0.0833
compound=CC(C)CCN1CCc2nc(-c3ccccc3)c3c(c2C1)CO[C@@H](C)C3 assay_value=-0.174
compound="CCOC(=O)[C@H](CC(C)C)NC(=O)CCC1CC(OC(=O)NCc2cccc3ccccc23)CC2(CCCC(COC(=O)NCc3ccccc3)O2)O1 (some centres not stated)" assay_value=2.99
compound=CC(C)C(=O)N[C@@H]1CCCN1C(=O)C=Cc1ccccc1 assay_value=-0.416
compound=CO[C@@H]1COC(=O)CC=C[C@H](C)COC(=O)[C@H](C)NC(=O)CC=C[C@H]1C assay_value=-0.87
compound=CC(C)=NO[C@@H](C)c1cc(-c2c(C)cc(C)cc2C)no1 assay_value=0.122
compound=COc1ccc(COC(=O)NN=C2C[C@@H](O)[C@@H](O)[C@@H]3[C@@H]4C(=O)N(C(C)(C)C)C(=O)[C@@H]4CC[C@H]23)cc1 assay_value=-1.03
compound=CCN1C(=O)[C@H]2[C@H]3[C@H](O)[C@H](O)CC(=NNC(=O)OCc4ccc(OC)cc4)[C@H]3CC[C@H]2C1=O assay_value=-0.0988

// query z-score value for entry "CCOC(=O)NN=C1C[C@@H](O)[C@@H](O)[C@@H]2[C@@H]3C(=O)N(Cc4ccc5c(c4)OCO5)C(=O)[C@@H]3CC[C@@H]12"
-0.544
